// data source = ChEMBL document CHEMBL4004837

# METHOD_DESCRIPTION: Volume of distribution in mouse at 1 mg/kg, iv
# Assay type: ADME, organism-based
# COND: in vivo
METRIC: Vd (L/kg)
Report as a plain number; the unit L/kg is understood.

Query string: Return reported Vd; argument: `CCCc1oc(CCC(=O)O)c(C(=O)O)c1C`
Result string: 0.2

###

# METHOD_DESCRIPTION: Half life in mouse at 3 mg/kg, iv
# Type: ADME, organism-based
# COND: in vivo
METRIC: half-life (h)
The reply should contain only the number, in h.

Query string: Reported half-life for `CCCc1oc(CCC(=O)O)c(C(=O)O)c1C` : what is it?
Result string: 3.27

###

# METHOD_DESCRIPTION: AUC in mouse at 3 mg/kg, iv
# Format: ADME, organism-based
# COND: in vivo
METRIC: AUC (µM·h)
Kindly provide the numeric value in µM·h only, without the unit symbol.

Query string: Which value of AUC has been reported for `CCCc1oc(CCC(=O)O)c(C(=O)O)c1C` in the records?
Result string: 210

###

# METHOD_DESCRIPTION: Suppression of high glucose stimulated insulin secretion in mouse pancreatic islets at 200 uM treated for 24 hrs followed by glucose stimulation for 20 mins by HTRF assay relative to control
# Assay type: ADME, cell-based
# COND: pancreatic islet
METRIC: Activity

>>> print(df.to_string())
                                   molecule    metric     result
0  CCCC1(O)OC(O)(CCC(=O)O)C(C(=O)O)=C1C (stereo not drawn)  Activity  Non-Toxic
1           CCCc1oc(CCC(=O)O)c(C(=O)O)c1CCC  Activity      Toxic
2                 CCCc1oc(CCCO)c(C(=O)O)c1C  Activity  Non-Toxic

###

A collection of compounds and their measured fold change (FC)
# Test system: HEK293
# METHOD_DESCRIPTION: Cytotoxicity against HEK293 cells assessed as fold change in capase3/7 activity by Caspase-Glo 3/7 assay relative to DMSO
# Type: cell-based
# COND: human

Illustrative cases are given below, each with its answer.
                                   compound    result
0         CCCc1oc(CCC(=O)OC)c(C(=O)OC)c1CCC  1 to 1.1
1  CCCC1(O)OC(O)(CCC(=O)O)C(C(=O)O)=C1C (stereo not drawn)  1 to 1.1

Query string: Form field: reported fold change (FC) of `Cc1c(CCOCc2ccccc2)oc(CCC(=O)O)c1C(=O)O`
Result string: 1.1

Query string: # iterate: `COC(=O)CCc1oc(C)c(C)c1C(=O)OC`
Result string: 1 to 1.1

Query string: Next entry: `CCCc1oc(CCCO)c(C(=O)O)c1C`
Result string: 1

Query string: Please answer likewise for `CCC(=O)c1oc(CCC(=O)OC)c(C(=O)OC)c1C`
Result string: 1 to 1.1

Query string: Similarly, `CCCCCc1oc(CCC(=O)O)c(C(=O)O)c1C` ?
Result string: 1

Query string: Can you check CCCC1(O)OC(O)(CCC(=O)OC)C(C(=O)OC)=C1C (stereo not drawn) next?
Result string: 0.9 to 1

Query string: Likewise for `Cc1oc(CCC(=O)O)c(C(=O)O)c1C` ?
Result string: 0.8 to 1

Query string: Another compound: `CCCc1oc(CCC(=O)O)cc1C`
Result string: 0.9 to 1

###

# METHOD_DESCRIPTION: Initial plasma concentration in mouse at 6 mg/kg, iv
# Assay type: ADME, organism-based
METRIC: C0

Query string: Would you kindly share the measured C0 for `CCCc1oc(CCC(=O)O)c(C(=O)O)c1C` ?
Result string: 200 to 250 µM

###

# METHOD_DESCRIPTION: Suppression of glucose stimulated insulin secretion in mouse pancreatic islet at 200 uM incubated for 24 hrs followed by glucose stimulation for 20 mins by HTRF assay relative to control
METRIC: Activity

>>> print(df.to_string())
                                   compound     result
0  CCCC1(O)OC(O)(CCC(=O)O)C(C(=O)O)=C1C (configuration not stated)  Non-Toxic
1           CCCCCc1oc(CCC(=O)O)c(C(=O)O)c1C      Toxic
2         CCCCCc1oc(CCC(=O)OC)c(C(=O)OC)c1C  Non-Toxic
3  CCCC1(O)OC(O)(CCC(=O)OC)C(C(=O)OC)=C1C (configuration not stated)  Non-Toxic
4           COC(=O)CCc1oc2c(c1C(=O)OC)CCCC2      Toxic

Query string: For `CCCc1oc(CCC(=O)O)c(C(=O)O)c1C` , what is its reported Activity?
Result string: Toxic

Query string: // repeat for `CCCc1oc(CCCO)c(C(=O)O)c1C` and report
Result string: Non-Toxic

###

# STUDY_TARGET: CYP2D6 (Homo sapiens)
# Sequence (P10635 whole entry): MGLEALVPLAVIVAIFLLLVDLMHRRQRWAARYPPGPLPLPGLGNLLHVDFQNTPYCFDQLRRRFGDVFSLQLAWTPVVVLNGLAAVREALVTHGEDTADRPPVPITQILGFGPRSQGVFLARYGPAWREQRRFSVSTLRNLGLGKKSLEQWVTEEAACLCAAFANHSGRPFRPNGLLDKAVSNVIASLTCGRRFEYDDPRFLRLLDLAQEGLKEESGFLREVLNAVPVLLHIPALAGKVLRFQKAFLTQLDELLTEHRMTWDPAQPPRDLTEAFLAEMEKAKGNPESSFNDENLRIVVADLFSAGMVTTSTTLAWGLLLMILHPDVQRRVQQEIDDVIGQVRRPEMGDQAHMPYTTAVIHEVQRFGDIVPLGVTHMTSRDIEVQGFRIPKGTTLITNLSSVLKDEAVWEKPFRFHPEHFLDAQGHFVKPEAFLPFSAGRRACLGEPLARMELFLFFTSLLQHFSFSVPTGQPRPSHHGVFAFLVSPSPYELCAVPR
# METHOD_DESCRIPTION: Inhibition of human microsomal CYP2D6 at 10 uM after 3 mins by single quad LC/MS analysis
# Type: ADME
# COND: microsomes
Would you mind labelling by inhibition at 0.05 h, 10 µM? At or over 5% is rule met, under is rule not met.

Consider the following illustrative entries.
>>> df
                      smiles_input   label_value
0  COC(=O)CCc1oc2c(c1C(=O)OC)CCCC2      rule met
1  CCCCCc1oc(CCC(=O)O)c(C(=O)O)c1C  rule not met
2        CCCc1oc(CCCO)c(C(=O)O)c1C  rule not met
3    CCc1oc(CCC(=O)O)c(C(=O)O)c1CC  rule not met
4    CCCc1oc(CCC(C)=O)c(C(C)=O)c1C  rule not met

Next compound, please.
Query string: Check if inhibition at 0.05 h, 10 µM >= 5% (inclusive). Item: `CCCCCc1oc(CCC(=O)OC)c(C(=O)OC)c1C`
Result string: rule met

###

# Tested on: Hepatocyte
# METHOD_DESCRIPTION: Cytotoxicity against mouse primary hepatocytes assessed as fold change in capase3/7 activity by Caspase-Glo 3/7 assay relative to DMSO
# Type: cell-based
Below is a list of entries, each paired with its recorded fold change (FC) value.
When you answer, write just the number.

Here are 5 compounds together with their reported answers.
                              compound  numeric_readout
0      COC(=O)CCc1oc2c(c1C(=O)OC)CCCC2              0.4
1           CCCc1oc(CCCO)c(C(=O)OC)c1C              0.6
2  CCC(=O)c1oc(CCC(=O)OC)c(C(=O)OC)c1C              1.5
3            CCCc1oc(CCCO)c(C(=O)O)c1C              0.6
4        COC(=O)CCc1oc(C)c(C)c1C(=O)OC              0.8

Query string: Entry under review: `Cc1oc(CCC(=O)O)c(C(=O)O)c1C` . Reported fold change (FC)?
Result string: 2

Query string: Ok, now `CCC(=O)c1oc(CCC(=O)O)c(C(=O)O)c1C`
Result string: 1.1

Query string: Now try `CCCc1oc(CCC(C)=O)c(C(C)=O)c1C` .
Result string: 0.3

Query string: Please answer likewise for `CCC[C@H]1C[C@H](C(=O)OC)[C@@H](CCC(=O)OC)O1`
Result string: 1.3

Query string: // next record CCCC1(O)OC(O)(CCC(=O)OC)C(C(=O)OC)=C1C (stereo not drawn)
Result string: 0.3

Query string: Next up: `Cc1c(CCOCc2ccccc2)oc(CCC(=O)O)c1C(=O)O`
Result string: 1.4

Query string: Follow-up entry: `CCCc1oc(CCC)c(C(=O)O)c1C`
Result string: 1.4

Query string: Param item: `CCCc1oc(C(=O)O)c(C)c1C`
Result string: 2.2

Query string: Entry to check: CCCC1(O)OC(O)(CCC(=O)O)C(C(=O)O)=C1C (stereo not drawn)
Result string: 0.9

###

# STUDY_TARGET: CYP2C9 (Homo sapiens, UniProt P11712)
# Sequence (P11712 whole entry): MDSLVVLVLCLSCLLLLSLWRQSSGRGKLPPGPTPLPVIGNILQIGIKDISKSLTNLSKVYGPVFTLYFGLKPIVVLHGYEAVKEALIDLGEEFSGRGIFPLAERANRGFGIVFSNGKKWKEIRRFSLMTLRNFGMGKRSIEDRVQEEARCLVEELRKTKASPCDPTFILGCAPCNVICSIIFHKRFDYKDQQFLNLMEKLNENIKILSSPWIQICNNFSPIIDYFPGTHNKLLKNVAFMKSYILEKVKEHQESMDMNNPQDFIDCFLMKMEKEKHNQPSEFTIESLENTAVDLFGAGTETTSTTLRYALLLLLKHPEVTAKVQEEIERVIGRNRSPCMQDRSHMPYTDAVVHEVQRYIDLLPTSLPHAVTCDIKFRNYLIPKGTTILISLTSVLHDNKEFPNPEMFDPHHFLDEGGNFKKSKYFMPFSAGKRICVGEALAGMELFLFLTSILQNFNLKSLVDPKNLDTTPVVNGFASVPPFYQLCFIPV
# METHOD_DESCRIPTION: Inhibition of human microsomal CYP2C9 at 10 uM after 10 mins by single quad LC/MS analysis
# Assay type: ADME
# COND: microsomes
METRIC: inhibition at 10 min, 10 µM
Please state the number and follow it with the unit.

In [3]: df
Out[3]:
                        smiles_input  result
0  CCC(=O)c1oc(CCC(=O)O)c(C(=O)O)c1C     10%

Moving on to another compound below.
Query string: What inhibition at 10 min, 10 µM appears in the records for this compound with CYP2C9 (Homo sapiens, UniProt P11712)? `COC(=O)CCc1oc(C)c(C)c1C(=O)OC`
Result string: 3%
